# credit: ChEMBL document CHEMBL1139117

system-under-test: Alpha-2A adrenergic receptor (Homo sapiens)
Sequence (whole entry): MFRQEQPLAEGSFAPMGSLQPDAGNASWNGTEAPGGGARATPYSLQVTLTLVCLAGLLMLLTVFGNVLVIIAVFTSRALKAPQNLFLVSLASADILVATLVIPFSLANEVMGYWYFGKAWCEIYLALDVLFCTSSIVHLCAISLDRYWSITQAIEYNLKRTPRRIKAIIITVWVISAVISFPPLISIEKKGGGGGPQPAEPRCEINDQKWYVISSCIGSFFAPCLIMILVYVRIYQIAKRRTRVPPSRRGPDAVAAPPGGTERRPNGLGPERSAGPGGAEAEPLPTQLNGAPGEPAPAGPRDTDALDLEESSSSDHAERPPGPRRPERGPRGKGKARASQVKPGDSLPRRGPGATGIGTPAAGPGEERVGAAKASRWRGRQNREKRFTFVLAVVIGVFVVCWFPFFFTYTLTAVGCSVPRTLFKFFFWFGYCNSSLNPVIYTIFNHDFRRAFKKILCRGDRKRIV
protocol-notes: Displacement of [3H]MK912 from adrenergic alpha2A receptor in HT29 cells at 0.1 uM
Type: cell-based
condition-context: HT-29
measured-property: inhibition (%)

| molecule-smiles | system-under-test | unit-label | inhibition |
| --- | --- | --- | --- |
| COc1cc2c(cc1OC)CN(Cc1ccc(OC)c3oc(-c4cccc(C(=O)NCCO)c4)cc13)CC2 | Alpha-2A adrenergic receptor (Homo sapiens) | % | 29 |

P. COc1ccc(CN2CCc3ccccc3C2)c2cc(-c3ccccc3)oc12
Q. COc1cc2c(cc1OC)CN(Cc1ccc(OC)c3oc(-c4ccccc4OC)cc13)CC2
stdin: Hey, which is lower on measured inhibition, P or Q ? // output: label of the selected item
stdout: Q
(Q: 11%, P: 30%)

P. COc1ccc(CN2CCN(c3ccccc3)CC2)c2cc(C(=O)NCCN(C)C)oc12
Q. COc1cc2c(cc1OC)CN(Cc1ccc(OC)c3oc(-c4cccc(F)c4)cc13)CC2
stdin: // compare: P vs Q , metric inhibition, want the smaller Pick one and reply with its label.
stdout: Q

P. COc1cc2c(cc1OC)CN(Cc1ccc3cc(C(=O)NCCN(C)C)oc3c1OC)CC2
Q. COc1ccc(CN2CCc3ccccc3C2)c2cc(C(=O)NCCN(C)C)oc12
stdin: Please choose the item with the lower inhibition value from this pair: P and Q Give the label of your selection.
stdout: P
(P: 20%, Q: 88%)

----------
system-under-test: Alpha-2C adrenergic receptor (Homo sapiens)
Sequence (P18825 whole entry): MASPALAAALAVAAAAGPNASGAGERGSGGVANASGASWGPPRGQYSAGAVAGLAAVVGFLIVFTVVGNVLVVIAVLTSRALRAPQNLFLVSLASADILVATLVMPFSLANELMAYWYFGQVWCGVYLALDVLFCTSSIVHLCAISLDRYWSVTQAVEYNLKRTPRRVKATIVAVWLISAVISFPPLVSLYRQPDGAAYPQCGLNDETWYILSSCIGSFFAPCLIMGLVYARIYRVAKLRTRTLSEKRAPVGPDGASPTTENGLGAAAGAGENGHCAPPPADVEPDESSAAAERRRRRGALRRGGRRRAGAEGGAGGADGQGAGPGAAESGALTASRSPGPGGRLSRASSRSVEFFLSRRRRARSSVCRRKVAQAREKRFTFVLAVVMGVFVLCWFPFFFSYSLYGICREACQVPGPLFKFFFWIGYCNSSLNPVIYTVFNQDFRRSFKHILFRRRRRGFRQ
protocol-notes: Displacement of [3H]MK912 from adrenergic Alpha-2C receptor in HepG2 cells
pKi: −log10 of the molar value.
measured-property: pKi

Example compounds with recorded pKi:
| molecule-smiles | pKi |
| --- | --- |
| COc1cc2c(cc1OC)CN(Cc1ccc(OC)c3oc(-c4ccccc4F)cc13)CC2 | 7.96 |
| COc1cc2c(cc1OC)CN(Cc1ccc(OC)c3oc(-c4ccccc4)cc13)CC2 | 7.70 |
| COc1cc2c(cc1OC)CN(Cc1ccc(OC)c3oc(-c4ccccn4)cc13)CC2 | 8.02 |

P. COc1cc2c(cc1OC)CN(Cc1ccc(OC)c3oc(-c4cccc(C(=O)NCCN(C)C)c4)cc13)CC2
Q. COc1cc2c(cc1OC)CN(Cc1cnc(N)n3nc(-c4ccco4)nc13)CC2
stdin: Which numeric pKi is bigger, that of P or that of Q ? Field: selected label. Fill in the label of the entry you choose.
stdout: P
(P: 8.03, Q: 7.72)

----------
system-under-test: Alpha-2A adrenergic receptor (Homo sapiens)
protocol-notes: Displacement of [3H]MK-912 from adrenergic alpha2A receptor in HT29 cells
pKi: −log10 of the molar value.
measured-property: pKi

Guide cases for pKi, answers given:
| molecule | measured-result |
| --- | --- |
| COc1cc2c(cc1OC)CN(Cc1ccc(OC)c3oc(C(=O)NCCN(C)C)cc13)CC2 | 6.34 |
| COc1cc2c(cc1OC)CN(Cc1ccc(OC)c3oc(-c4ccccc4)cc13)CC2 | 5.76 |
| COc1cc2c(cc1OC)CN(Cc1ccc(OC)c3oc(C(=O)N4CCC(N5CCCC5)CC4)cc13)CC2 | 6.73 |
| COc1cc2c(cc1OC)CN(Cc1cnc(N)n3nc(-c4ccco4)nc13)CC2 | 6.40 |
| COc1cc2c(cc1OC)CN(Cc1ccc(OC)c3oc(-c4cccc(C(=O)NCCN(C)C)c4)cc13)CC2 | 6.67 |

a. COc1cc2c(cc1OC)CN(Cc1ccc(OC)c3oc(-c4ccccc4C(F)(F)F)cc13)CC2
b. COc1cc2c(cc1OC)CN(Cc1ccc(OC)c3oc(C(=O)NCC(C)(C)N)cc13)CC2
c. COc1cc2c(cc1OC)CN(Cc1ccc(OC)c3oc(-c4ccccc4F)cc13)CC2
d. COc1cccc(-c2cc3c(CN4CCc5cc(OC)c(OC)cc5C4)ccc(OC)c3o2)c1
stdin: Reorder: pKi, max to min. Output spec: a listing of the labels in the requested order.
stdout: b, a, c, d

----------
system-under-test: Alpha-2A adrenergic receptor (Homo sapiens)
protocol-notes: Displacement of [3H]MK-912 from adrenergic alpha2A receptor in HT29 cells
pKi: −log10 of the molar value.
measured-property: pKi

| molecule | pKi |
| --- | --- |
| COc1cc2c(cc1OC)CN(Cc1ccc(OC)c3oc(-c4ccccn4)cc13)CC2 | 6.87 |
| COc1cc2c(cc1OC)CN(Cc1ccc(OC)c3oc(-c4ccco4)cc13)CC2 | 6.69 |
| COc1cc2c(cc1OC)CN(Cc1ccc(OC)c3oc(C(=O)NC4CN5CCC4CC5)cc13)CC2 (stereo not drawn) | 7.38 |
